meta.source: paper PMC12372887

- system.name: AMPKα2 kinase domain (α2KD), WT (Homo sapiens, UniProt P54646)
- Construct: human AMPK-α2 KD (α2KD; residues 6 to 280); made in house; host or cells: E. coli BL21(DE3)-RIL
- Sequence (P54646 6-280): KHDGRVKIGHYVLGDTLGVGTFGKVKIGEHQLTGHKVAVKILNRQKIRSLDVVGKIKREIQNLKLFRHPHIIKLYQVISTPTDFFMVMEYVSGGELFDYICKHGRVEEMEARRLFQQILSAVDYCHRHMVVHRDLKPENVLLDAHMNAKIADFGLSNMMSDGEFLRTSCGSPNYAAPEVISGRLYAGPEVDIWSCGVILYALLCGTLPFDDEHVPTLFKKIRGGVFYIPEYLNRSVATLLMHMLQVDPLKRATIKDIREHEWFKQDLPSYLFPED
- assay.method.text: Spectral shift (Dianthus) binding assay
- test.parameters: without DTT; read-out: dissociation constant (Kd)
recorded.metric: pKd
Give bare numbers, as −log10 of the molar value.

Sample "CCc1ccccc1C(=O)Nc1n[nH]c2c(C)c(F)c(C3C(C#N)=C(C)N(C)C(C)=C3C#N)cc12" ; pKd observed: 5.91

* * *

- Test system: pThr172-AMPKα in U2OS cells
- assay.method.text: HTRF assay of Thr172-AMPKα phosphorylation in U2OS cells
- Type: cell-based, human
- test.parameters: Homo sapiens, U2OS, + MK-8722 (10 μM)
recorded.metric: pEC50
One number for each entry, as −log10 of the molar value.

Sample CCc1ccccc1C(=O)Nc1n[nH]c2c(C)c(F)c(C3C(C#N)=C(C)N(C)C(C)=C3C#N)cc12 [BAY-3827] ; pEC50 observed: 6.24
